# Test Details: AUC in cynomolgus monkey at 2 mg/kg, po by LC-MS/MS analysis
# Type: ADME, organism-based, Macaca fascicularis
# Parameters: dose 2 mg/kg
# Assay Conditions: in vivo
Experimental Endpoint: AUC (µM·h)
Your answer should be a plain number; it is taken to be in µM·h.

[Q] Fill in AUC for record `Cc1nc(C)c([C@H](OC(C)(C)C)C(=O)O)c(N2CCC(C)(C)CC2)c1-c1ccc(OCCc2ccc(F)cc2)cc1`
[A] 2.23

----------
# System: CYP
# Test Details: Half life in monkey assessed as CYP mediated metabolism in presence of […] by phase I metabolic oxidation assay
# Type: ADME, Macaca mulatta
# Assay Conditions: rhesus monkey
Experimental Endpoint: half-life (min)
Your answer should be a plain number; it is taken to be in min.

[Q] Would you please give the reported half-life of `Cc1nc(C)c([C@H](OC(C)(C)C)C(=O)O)c(N2CCC(C)(C)CC2)c1-c1ccc(OCCc2ccc(F)cc2)cc1` with CYP?
[A] 59

----------
# Test Details: Cmax in cynomolgus monkey at 2 mg/kg, po by LC-MS/MS analysis
# Assay type: ADME, organism-based, Macaca fascicularis
# Parameters: route oral, dose 2 mg/kg
# Assay Conditions: in vivo
Experimental Endpoint: Cmax (nM)
Your answer should be a plain number; it is taken to be in nM.

[Q] Fill in Cmax for record `Cc1nc(C)c([C@H](OC(C)(C)C)C(=O)O)c(N2CCC(C)(C)CC2)c1-c1ccc(OCCc2ccc(F)cc2)cc1`
[A] 525

----------
# Test Details: AUC in Sprague-Dawley rat at 5 mg/kg, po by LC-MS/MS analysis
# Assay type: ADME, organism-based
# Design: dose 5 mg/kg
# Assay Conditions: in vivo
Experimental Endpoint: AUC (µM·h)
Your answer should be a plain number; it is taken to be in µM·h.

[Q] Fill in AUC for record `Cc1nc(C)c([C@H](OC(C)(C)C)C(=O)O)c(N2CCC(C)(C)CC2)c1-c1ccc(OCCc2ccc(F)cc2)cc1`
[A] 14

----------
# Tested Target: L-type calcium channel (Homo sapiens, UniProt O60840+Q01668+Q13698+Q13936)
# Test Details: Inhibition of calcium channel, Type L (unknown origin) at 10 uM
# Type: toxicity
Experimental Endpoint: inhibition at 10 µM (%)
Your answer should be a plain number; it is taken to be in %.

[Q] Fill in inhibition at 10 µM for record `Cc1nc(C)c([C@H](OC(C)(C)C)C(=O)O)c(N2CCC(C)(C)CC2)c1-c1ccc(OCCc2ccc(F)cc2)cc1`
[A] 96

----------
# Test Details: AUC in Beagle dog at 2 mg/kg, po by LC-MS/MS analysis
# Assay type: ADME, organism-based, Canis lupus familiaris
# Design: dose 2 mg/kg
# Assay Conditions: in vivo
Experimental Endpoint: AUC (µM·h)
Your answer should be a plain number; it is taken to be in µM·h.

[Q] Fill in AUC for record `Cc1nc(C)c([C@H](OC(C)(C)C)C(=O)O)c(N2CCC(C)(C)CC2)c1-c1ccc(OCCc2ccc(F)cc2)cc1`
[A] 18.5

----------
# Tested Target: Voltage-gated inwardly rectifying potassium channel KCNH2 (Homo sapiens, UniProt Q12809)
# Sequence (Q12809 whole entry): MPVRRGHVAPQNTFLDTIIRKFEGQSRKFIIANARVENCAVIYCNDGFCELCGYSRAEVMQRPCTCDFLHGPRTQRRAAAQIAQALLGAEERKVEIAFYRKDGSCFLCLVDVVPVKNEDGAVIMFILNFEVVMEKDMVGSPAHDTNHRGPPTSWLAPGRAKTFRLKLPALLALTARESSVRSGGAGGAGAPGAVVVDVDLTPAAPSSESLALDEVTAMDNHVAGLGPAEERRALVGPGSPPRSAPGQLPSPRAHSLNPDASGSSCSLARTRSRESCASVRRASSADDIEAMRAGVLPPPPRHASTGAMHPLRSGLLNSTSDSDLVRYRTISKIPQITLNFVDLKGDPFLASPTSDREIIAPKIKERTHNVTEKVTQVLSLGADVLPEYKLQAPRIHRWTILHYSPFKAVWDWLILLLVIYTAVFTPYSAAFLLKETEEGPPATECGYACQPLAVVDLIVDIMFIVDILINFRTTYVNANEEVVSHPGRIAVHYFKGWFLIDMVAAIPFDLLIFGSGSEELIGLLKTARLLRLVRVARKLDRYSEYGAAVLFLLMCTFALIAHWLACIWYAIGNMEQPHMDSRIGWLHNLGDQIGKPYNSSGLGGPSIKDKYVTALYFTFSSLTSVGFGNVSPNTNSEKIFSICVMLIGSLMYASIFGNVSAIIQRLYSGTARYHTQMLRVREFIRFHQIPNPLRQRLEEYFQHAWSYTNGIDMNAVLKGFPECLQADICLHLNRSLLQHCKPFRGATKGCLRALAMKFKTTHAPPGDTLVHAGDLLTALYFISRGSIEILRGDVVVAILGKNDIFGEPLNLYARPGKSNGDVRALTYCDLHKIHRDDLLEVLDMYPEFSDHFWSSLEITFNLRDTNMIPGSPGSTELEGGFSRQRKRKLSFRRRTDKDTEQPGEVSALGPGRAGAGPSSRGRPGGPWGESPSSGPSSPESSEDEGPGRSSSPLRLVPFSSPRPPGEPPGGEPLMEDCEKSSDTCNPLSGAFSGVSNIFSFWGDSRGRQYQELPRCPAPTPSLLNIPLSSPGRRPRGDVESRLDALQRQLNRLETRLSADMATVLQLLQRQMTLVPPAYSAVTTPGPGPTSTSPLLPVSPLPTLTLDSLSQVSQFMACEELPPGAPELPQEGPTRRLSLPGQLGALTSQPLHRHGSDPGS
Experimental Endpoint: IC50 (µM)
Your answer should be a plain number; it is taken to be in µM.

[Q] Would you please give the reported IC50 of `Cc1nc(C)c([C@H](OC(C)(C)C)C(=O)O)c(N2CCC(C)(C)CC2)c1-c1ccc(OCCc2ccc(F)cc2)cc1` with Voltage-gated inwardly rectifying potassium channel KCNH2 (Homo sapiens, UniProt Q12809)?
[A] 0.67
